tested on: Plasmodium falciparum; experiment: Screen against P. falciparum Asexual Blood Stage (ABS), at 5uM; assay type: functional, Dd2; details: tested at 5 uM
In all, about 65,000 compounds went through this assay and about 2,100 (3.2%) showed an effect of 50% or more. The median lay at about -52%. The list comes from a sample in which strong results are over-represented; it also holds close analogues and randomly drawn compounds.
observable: INHIBITION (%)
Give bare numbers, in %.

Illustrative cases are given below, each with its answer.
O=C(NCCCN1CCCCCC1=O)c1n[nH]c(=O)c2ccccc12; -16.5
CC(C)N(C)CC(=O)NCc1ccccc1N1CCN(C)CC1; 43.8
O=S(=O)(c1ccc(-c2cnco2)cc1)N1CCCC(O)(CO)CC1 (centres undefined); -40.8

Hello, I would appreciate it if you could give INHIBITION for each entry below.
1. c1cncc(-c2ccc3c(c2)CCC32CCN(Cc3nccs3)CC2)c1
2. CN1CCN(c2ccccc2CNC(=O)CSC(F)(F)F)CC1
3. N#Cc1ccnc(NCc2cc3n(n2)CCCN(C(=O)C2CCC2)C3)c1
4. COc1ccccc1NCc1cscn1
5. CC(=O)N1CCCC1c1nnn2cc(-c3ccncc3)ccc12 (centres undefined)
6. CN1CCCC2(CCN(S(=O)(=O)c3ccc(-c4cnco4)s3)C2)C1=O (centres undefined)
7. CCOc1ncnc2c1CCN(C(=O)NCc1cccnc1)CC2

Outgoing:
49.1
67.3
-89.1
-46.4
-69.2
-16.8
-58.1

Hello, I would appreciate it if you could give INHIBITION for each entry below.
1. CC(=O)N1CCO[C@@H]2CN(Cc3ccccc3F)C[C@@H]2C1
2. CCc1n[nH]c(C2CN(C(=O)c3ccnc(N(C)C)c3)CCO2)n1 (centres undefined)
3. CN1[C@@H]2CC[C@H]1CN(c1nc(-c3ccncc3)nc3c1cnn3C)CC2
4. COCCN(C)C(=O)c1nc2c(s1)CCCN2c1ccc(C)nn1
5. Cc1ccc(C2CN(c3nnc(C(F)F)s3)CCO2)c(C)c1 (centres undefined)
6. Cc1ccc(N2CCCC(NCc3ccccn3)C2)nn1 (centres undefined)
7. c1cc(C2CC2)n2cnc(C3CN(Cc4ccncc4)CCO3)c2c1 (centres undefined)
8. COc1cc(C(C)NCc2cscn2)ccc1SC(F)F (centres undefined)

Outgoing:
1. -77.7
2. -77.2
3. -86.6
4. -53.3
5. -42.4
6. -71.8
7. -50
8. 52.5

Hello, I would appreciate it if you could give INHIBITION for each entry below.
1. CN(CCCc1cc(-c2ccc(F)cc2)n(C)n1)CC(=O)NC(N)=O
2. Cc1cc(S(=O)(=O)N2CCC(S(C)(=O)=O)C2)ccc1F (centres undefined)
3. O=C(NCC1CCS(=O)(=O)C1)N1CCN(c2cnccn2)CC1 (centres undefined)

Outgoing:
-152
-22.2
-123

Hello, I would appreciate it if you could give INHIBITION for each entry below.
1. CN1CCC2(CCCN(S(=O)(=O)c3ccc(-c4cnco4)s3)C2)C1 (centres undefined)
2. Cc1ccc(S(=O)(=O)N2CCC(N3CCCCC3)CC2)cc1C
3. Cc1ccc(CN2CCOC3(COCCN(CCN(C)C)C3)C2)o1 (centres undefined)

Outgoing:
1. 52.1
2. 65.9
3. -69.1
